Overview of recorded SPOT peptide array binding signal intensity for various binders
Target: AgHof1
Test: SPOT peptide array binding signal intensity (averaged, normalized) (arbitrary units (background-subtracted, floor 0; scale differs between SH3 domains)); higher = stronger binding of the SH3 domain to the peptide
metric-name: SPOT peptide array binding signal intensity

| binder | prefix-operator | endpoint-value |
| --- | --- | --- |
| SSTPTTPERPKRKSG | ≤ | 0 |
| YSRKKLPVVLSKMTL | = | 28.8 |
| RSVKRPRRAPRPVVS | = | 49 |
| KMSRSPPRPPSLKII | = | 17 |
